assay: Mouse in vivo oral and iv PK; details: male, CD1 mice, po 10 mg/kg, whole blood, read-out: po AUClast

- molecule_smiles: "CC[C@H]1C[C@H](C)[C@@]2(NC1=O)O[C@@H](C[C@H](O)[C@@H](C)CC/C=C/C=C(\\C)[C@@H]1C/C=C/C=C/[C@H](O)[C@H](C)[C@@H](O)[C@@H](CCC(C)=O)C(=O)N[C@@H](C(C)C)C(=O)N[C@@H](Cc3cccc(O)c3)C(=O)N3CCC[C@H](N3)C(=O)O1)[C@H](C)[C@H](O)[C@@H]2C"
  AUC(0-t), ng·h/mL: 2330

* * *

target: OATP1B1 (Homo sapiens (Human), UniProt Q9Y6L6); assay: Uptake transporter inhibition, OATP1B1; conditions: CHO cells, probe substrate E3S
# IC50 listing for each entry below

- compound: "CC(=O)CC[C@H]1C(=O)N[C@@H](C(C)C)C(=O)N[C@@H](Cc2cc(O)cc(F)c2)C(=O)N2CCCC(N2)C(=O)O[C@H](/C(C)=C/C=C/C(=O)N2CCCCO2)C/C=C/C=C/[C@H](O)[C@H](C)[C@H]1O (some centres unmarked)"
  readout_units: "nM"
  IC50: 4300
- compound: "C/C=C/C[C@@H](C)[C@@H](O)[C@H]1C(=O)N[C@@H](CC)C(=O)N(C)[C@H](C)C(=O)N(CC)[C@@H](C(C)C)C(=O)N[C@@H](C(C)C)C(=O)N(C)[C@@H](CC(C)C)C(=O)N[C@@H](C)C(=O)N[C@H](C)C(=O)N(C)[C@@H](CC(C)C)C(=O)N(C)[C@@H](CC(C)C)C(=O)N(C)[C@@H](C(C)C)C(=O)N1C"
  readout_units: "nM"
  IC50: 450

* * *

target: OATP1B3 (Homo sapiens (Human), UniProt Q9NPD5); test: Uptake transporter inhibition, OATP1B3; format: cell-based; details: CHO cells, probe substrate Fluo-3
pIC50: −log10 of the molar value.
measured_endpoint: pIC50

- molecule: "C/C=C/C[C@@H](C)[C@@H](O)[C@H]1C(=O)N[C@@H](CC)C(=O)N(C)[C@H](C)C(=O)N(CC)[C@@H](C(C)C)C(=O)N[C@@H](C(C)C)C(=O)N(C)[C@@H](CC(C)C)C(=O)N[C@@H](C)C(=O)N[C@H](C)C(=O)N(C)[C@@H](CC(C)C)C(=O)N(C)[C@@H](CC(C)C)C(=O)N(C)[C@@H](C(C)C)C(=O)N1C [DEBIO-025, 2, DEBIO-025]"
  measured_endpoint: "pIC50"
  numeric_value: 6.72
- molecule: "CC(=O)CC[C@H]1C(=O)N[C@@H](C(C)C)C(=O)N[C@@H](Cc2cc(O)cc(F)c2)C(=O)N2CCCC(N2)C(=O)O[C@H](/C(C)=C/C=C/C(=O)N2CCCCO2)C/C=C/C=C/[C@H](O)[C@H](C)[C@H]1O (some centres unmarked) [Compound 24]"
  measured_endpoint: "pIC50"
  numeric_value: 5.74

* * *

# pIC50 listing for each entry below
biological target: P-glycoprotein (Pgp/MDR1) (Homo sapiens (Human)); experiment: Inhibition of Pgp transporter using MDR1-MDCK cells; settings: loperamide substrate
pIC50: −log10 of the molar value.

- molecule: "CC(=O)CC[C@H]1C(=O)N[C@@H](C(C)C)C(=O)N[C@@H](Cc2cc(O)cc(F)c2)C(=O)N2CCCC(N2)C(=O)O[C@H](/C(C)=C/C=C/C(=O)N2CCCCO2)C/C=C/C=C/[C@H](O)[C@H](C)[C@H]1O (some centres unmarked)"
  modifier_sign: "<"
  pIC50: 4.30
- molecule: "C/C=C/C[C@@H](C)[C@@H](O)[C@H]1C(=O)N[C@@H](CC)C(=O)N(C)[C@H](C)C(=O)N(CC)[C@@H](C(C)C)C(=O)N[C@@H](C(C)C)C(=O)N(C)[C@@H](CC(C)C)C(=O)N[C@@H](C)C(=O)N[C@H](C)C(=O)N(C)[C@@H](CC(C)C)C(=O)N(C)[C@@H](CC(C)C)C(=O)N(C)[C@@H](C(C)C)C(=O)N1C"
  modifier_sign: "="
  pIC50: 6.14

* * *

Experiment: Mouse in vivo oral and iv PK
Details: male, CD1 mice, po 5 mg/kg, whole blood, read-out: po AUClast
Experimental: For sanglifehrin analogues, whole blood is analysed. Compounds are formulated in 5% ethanol/5% cremophor EL/90% saline for both p.o. and i.v. administration. Groups of 3 male CD1 mice are dosed with either 1 mg/kg i.v. or 5 or 10 mg/kg p.o. Blood samples (40 μL) are taken via saphenous vein, pre-dose and at 0.25, 0.5, 2, 8, and 24 hours, and diluted with an equal amount of dH20 and put on dry ice immediately. Samples are stored at −70° C. until analysis. […]
measured_endpoint: AUC(0-t)

- molecule: "CC(=O)CC[C@H]1C(=O)N[C@@H](C(C)C)C(=O)N[C@@H](Cc2cc(O)cc(F)c2)C(=O)N2CCCC(N2)C(=O)O[C@H](/C(C)=C/C=C/C(=O)N2CCCCO2)C/C=C/C=C/[C@H](O)[C@H](C)[C@H]1O (stereo partly shown)"
  measured_endpoint: "AUC(0-t)"
  result: "8220 ng·h/mL"

* * *

assay: Mouse in vivo oral and iv PK; conditions: male, CD1 mice, iv at 1 mg/kg, whole blood
# clearance listing for each entry below

- molecule: "CC[C@H]1C[C@H](C)[C@@]2(NC1=O)O[C@@H](C[C@H](O)[C@@H](C)CC/C=C/C=C(\\C)[C@@H]1C/C=C/C=C/[C@H](O)[C@H](C)[C@@H](O)[C@@H](CCC(C)=O)C(=O)N[C@@H](C(C)C)C(=O)N[C@@H](Cc3cccc(O)c3)C(=O)N3CCC[C@H](N3)C(=O)O1)[C@H](C)[C@H](O)[C@@H]2C"
  clearance [mL/min/kg]: 0.9
- molecule: "CC(=O)CC[C@H]1C(=O)N[C@@H](C(C)C)C(=O)N[C@@H](Cc2cc(O)cc(F)c2)C(=O)N2CCCC(N2)C(=O)O[C@H](/C(C)=C/C=C/C(=O)N2CCCCO2)C/C=C/C=C/[C@H](O)[C@H](C)[C@H]1O (some centres unmarked)"
  clearance [mL/min/kg]: 0.283
